Catalogue of EC50 readings, one per entry.
Target: hDP (Homo sapiens, UniProt Q13258)
Sequence (Q13258 1-359): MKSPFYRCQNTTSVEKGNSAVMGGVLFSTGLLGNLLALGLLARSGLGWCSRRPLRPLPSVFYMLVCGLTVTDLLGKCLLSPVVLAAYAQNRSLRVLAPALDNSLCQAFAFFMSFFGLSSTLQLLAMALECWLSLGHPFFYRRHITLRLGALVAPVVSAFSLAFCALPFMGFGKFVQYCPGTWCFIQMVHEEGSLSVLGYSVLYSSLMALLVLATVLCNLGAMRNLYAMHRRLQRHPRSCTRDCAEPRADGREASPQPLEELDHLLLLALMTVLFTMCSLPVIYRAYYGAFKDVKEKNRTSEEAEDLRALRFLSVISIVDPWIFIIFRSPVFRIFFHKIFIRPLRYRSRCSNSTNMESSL
Experiment: Other receptors hDP
Assay type: cell-based
Quick reminder: number only, in nM, skip the unit.

compound_smiles=O=C(O)c1ccc(CCC[C@@H]2[C@@H](/C=C\c3cc(F)cc(F)c3)[C@H](O)C[C@H]2Cl)s1 system="hDP (Homo sapiens, UniProt Q13258)" measured_endpoint=EC50 obs_value=6370
compound_smiles=O=C(O)c1csc(SCC[C@@H]2[C@@H](C#Cc3cc(Cl)cc(Cl)c3)[C@H](O)C[C@H]2Cl)n1 system="hDP (Homo sapiens, UniProt Q13258)" measured_endpoint=EC50 obs_value=14800
compound_smiles=O=C(O)c1ccc(CCC[C@@H]2[C@@H](C#Cc3cccs3)[C@H](O)C[C@H]2Cl)s1 system="hDP (Homo sapiens, UniProt Q13258)" measured_endpoint=EC50 obs_value=18300
compound_smiles=O=C(O)c1ccc(CCC[C@@H]2[C@@H](/C=C\c3cc(Cl)nc(Cl)c3)[C@H](O)C[C@H]2Cl)s1 system="hDP (Homo sapiens, UniProt Q13258)" measured_endpoint=EC50 obs_value=2100
compound_smiles=Cc1cccc(/C=C/[C@@H]2[C@@H](CCCc3ccc(C(=O)O)s3)[C@H](Cl)C[C@H]2O)c1 system="hDP (Homo sapiens, UniProt Q13258)" measured_endpoint=EC50 obs_value=12300

Prompt: State its EC50 for this compound: O=C(O)c1csc(SCC[C@@H]2[C@@H](C#Cc3ccccc3)[C@H](O)C[C@H]2Cl)n1
Response: 1030
